test system: U251 CNS; experiment: NCI tumour cell line growth inhibition, 48 h
Consider the following compounds; for each one, report its TGI.
Give your result in µM as a bare value.

Lab book: TGI of O=C(c1ccccc1)N(C(=S)NCCc1ccc(Cl)cc1)c1ccc(Cl)cc1 noted as 14.9

Lab book: TGI of c1ccc(-c2ccc(-c3ccc(C4=NCCN4)cc3)o2)cc1 noted as 3.93

Lab book: TGI of CC1OC(OC2C(O)COC(OC3C(C)OC(OC4C(OC(=O)[C@]56CCC(C)(C)C[C@@H]5C5=CCC7[C@@]8(C)C[C@H](O)[C@H](OC9OC(CO)C(O)C(O)C9O)[C@@](C)(CO)[C@@H]8CC[C@@]7(C)[C@]5(C)CC6)OCC(O)C4O)C(O)C3OC3OCC(O)C(O)C3O)C2O)C(O)C(O)C1O (stereo partly drawn) noted as 39.1

Lab book: TGI of COc1ccc2c(c1)/C(=C\c1c(-c3ccccc3)nc3n1CCS3)C(=O)N2 noted as 20.3

====

tested on: SNB-75 CNS; test: NCI tumour cell line growth inhibition, 48 h; in the data active = GI50 below about 0.43 µM; inactive = the rest
// classify into active, inactive

Asked: # lookup: test call for Fc1cc(-c2csc3n[nH]c(=S)n23)c(Cl)cc1Cl
Given back: inactive

Asked: # lookup: test call for CC(C)c1ccc(COCc2cc(CN3CCCC3)c(O)c3ncccc23)cc1
Given back: inactive

Asked: # lookup: test call for Cc1ccc2c(c1)C(=O)C(c1c(-c3[nH]c(=O)c4ccc(C)cc4c3O)c(O)c3ccccc3c1O)=NC2=O
Given back: inactive

Asked: # lookup: test call for N#Cc1cc2c(cc1Cl)SC(=Nc1ccccc1)N(S(=O)(=O)c1ccc(Cl)cc1)S2(=O)=O
Given back: inactive

Asked: # lookup: test call for Cn1ccnc1C(=O)/C=C/c1ccc(C(=O)Nc2ccc(F)cc2)cc1
Given back: inactive

Asked: # lookup: test call for COC(=O)c1oc2c(C(C)=O)c(OCCN3CCOCC3)c(OC)cc2c1C
Given back: inactive

Asked: # lookup: test call for COc1cc(/C=C\c2cc(/C=C\c3ccc(O)c(OC)c3)n(C(=O)COc3ccc(Cl)cc3Cl)n2)ccc1O
Given back: inactive

Asked: # lookup: test call for CC[C@H](C)[C@H](NC(=O)C12CC(NC)(C1)C2)C(=O)N(C)[C@H](C[C@@H](OC(C)=O)c1nc(C(=O)N[C@@H](Cc2ccccc2)C[C@H](C)C(=O)OC)cs1)C(C)C
Given back: active

Asked: # lookup: test call for Oc1cc2ccccc2cc1-c1n[nH]c(=S)n1CCc1ccccc1
Given back: inactive

Asked: # lookup: test call for CCOC(=O)c1cnc2c(C)cc(C)cc2c1NCCCN(C)C
Given back: inactive

Asked: # lookup: test call for O=C1/C(=C/c2ccc(Cl)cc2Cl)CN(S(=O)(=O)c2ccccc2)C/C1=C\c1ccc(Cl)cc1Cl
Given back: inactive

Asked: # lookup: test call for CN1CCN(CCCOc2ccc3ncnc(Nc4ccc(OCc5cccc(F)c5)c(Cl)c4)c3c2)CC1
Given back: inactive

Asked: # lookup: test call for COC(=O)c1ccc2[nH]c(O)c(C(=Nc3ccc(N(C)C(=O)CN4CCN(C)CC4)cc3)c3cccc(OC)c3)c2c1
Given back: active

Asked: # lookup: test call for O=C(O)c1ccc2nc(-c3ccc(OCCCCCOc4ccc(-c5nc6ccc(C(=O)O)cc6[nH]5)cc4)cc3)[nH]c2c1
Given back: inactive
